- targetUnderTest: human sweet taste receptor (hT1R2/hT1R3) (Homo sapiens, UniProt Q7RTX0+Q8TE23)
- Construct: expressed in transfected cells
- Sequence (Q8TE23 20-839): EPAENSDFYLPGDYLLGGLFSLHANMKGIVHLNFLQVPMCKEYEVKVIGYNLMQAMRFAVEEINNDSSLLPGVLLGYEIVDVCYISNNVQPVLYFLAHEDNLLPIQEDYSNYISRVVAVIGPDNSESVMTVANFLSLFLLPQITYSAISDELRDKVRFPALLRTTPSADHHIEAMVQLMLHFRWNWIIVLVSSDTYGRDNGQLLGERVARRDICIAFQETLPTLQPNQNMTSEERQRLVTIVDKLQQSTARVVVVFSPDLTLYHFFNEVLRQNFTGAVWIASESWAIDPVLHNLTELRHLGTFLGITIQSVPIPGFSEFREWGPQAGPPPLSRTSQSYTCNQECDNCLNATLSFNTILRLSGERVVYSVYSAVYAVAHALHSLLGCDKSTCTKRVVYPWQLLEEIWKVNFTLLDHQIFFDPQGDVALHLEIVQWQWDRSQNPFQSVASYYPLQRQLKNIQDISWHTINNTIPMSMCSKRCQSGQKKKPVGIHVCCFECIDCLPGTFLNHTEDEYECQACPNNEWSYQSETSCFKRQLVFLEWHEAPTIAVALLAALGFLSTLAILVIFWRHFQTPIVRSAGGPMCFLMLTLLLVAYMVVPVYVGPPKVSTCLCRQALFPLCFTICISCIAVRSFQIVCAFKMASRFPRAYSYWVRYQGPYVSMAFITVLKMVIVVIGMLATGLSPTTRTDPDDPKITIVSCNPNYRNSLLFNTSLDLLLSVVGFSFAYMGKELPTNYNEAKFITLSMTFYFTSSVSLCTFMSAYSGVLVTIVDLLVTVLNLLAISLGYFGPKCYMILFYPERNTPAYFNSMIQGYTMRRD
- Sequence (Q7RTX0 21-852): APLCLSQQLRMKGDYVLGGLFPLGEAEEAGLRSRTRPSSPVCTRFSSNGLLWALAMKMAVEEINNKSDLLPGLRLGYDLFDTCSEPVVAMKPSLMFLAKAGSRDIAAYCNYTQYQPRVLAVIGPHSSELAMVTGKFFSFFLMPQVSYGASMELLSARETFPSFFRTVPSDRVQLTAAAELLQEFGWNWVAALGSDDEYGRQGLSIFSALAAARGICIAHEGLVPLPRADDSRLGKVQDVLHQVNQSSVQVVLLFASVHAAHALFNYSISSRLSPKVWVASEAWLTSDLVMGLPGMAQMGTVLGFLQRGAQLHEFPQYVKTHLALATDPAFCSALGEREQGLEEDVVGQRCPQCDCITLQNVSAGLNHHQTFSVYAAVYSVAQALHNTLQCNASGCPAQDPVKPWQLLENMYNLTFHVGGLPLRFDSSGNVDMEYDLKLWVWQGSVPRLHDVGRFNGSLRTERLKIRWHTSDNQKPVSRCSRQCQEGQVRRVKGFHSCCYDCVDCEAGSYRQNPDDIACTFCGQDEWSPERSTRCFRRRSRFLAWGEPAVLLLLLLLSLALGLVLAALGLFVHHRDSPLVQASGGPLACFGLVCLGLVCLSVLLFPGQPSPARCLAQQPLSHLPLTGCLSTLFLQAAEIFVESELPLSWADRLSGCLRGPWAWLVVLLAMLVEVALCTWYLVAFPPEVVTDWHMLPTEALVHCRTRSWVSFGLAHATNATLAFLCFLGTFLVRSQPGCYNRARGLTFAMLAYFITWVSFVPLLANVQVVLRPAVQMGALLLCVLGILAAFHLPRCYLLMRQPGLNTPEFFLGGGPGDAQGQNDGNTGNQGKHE
- protocolNotes: DMR assay (Epic reader) on R2/R3 U2OS cells, endogenous G proteins
- Assay type: cell-based
- experimentalContext: R2/R3 U2OS cells, peak DMR response; read-out: Activity in DMR assay EC50
- Method: The plates were incubated in the tissue culture hood for 20 min to allow cells to settle evenly at the bottom of the microplate and further cultured at 37°C in an atmosphere of 5% CO2 for 18–24 h. […] This value, that we termed pEC50Ratio (sucralose) or pEC50R (sucralose), was calculated with EC50 values obtained in the two assay systems. […] The two sets of data (DMR and FLIPR data) were then analyzed with an un-paired t-test (α = 0.05). […]
Residues, ends and D or L forms follow the SMILES beside them.
Quick reference for EC50 among some compounds
Put down the number, then write its unit next to it.

Here are 5 compounds together with their reported answers.
>>> result("COC(=O)[C@H](Cc1ccccc1)NC(=O)[C@H](CC(=O)O)NC(=O)Nc1ccc(C#N)cc1")
"9.8 µM"
>>> result("CCOc1ccc(NC(N)=O)cc1")
"33 µM"
>>> result("C=C1C[C@@]23CC[C@H]4[C@@](C)(CCC[C@@]4(C)C(=O)O[C@@H]4O[C@H](CO)[C@@H](O)[C@H](O)[C@H]4O)[C@@H]2CC[C@]1(O[C@@H]1O[C@H](CO)[C@@H](O)[C@H](O)[C@H]1O[C@@H]1O[C@H](CO)[C@@H](O)[C@H](O)[C@H]1O)C3 [Stevioside]")
"127 µM"
>>> result("C[C@H](NC(=Nc1ccc(C#N)cc1)NCC(=O)O)c1ccccc1")
"4.3 µM"
>>> result("CC1=CC(=O)NS(=O)(=O)O1")
"1220 µM"

// query // lookup EC50 | system=human sweet taste receptor (hT1R2/hT1R3) (Homo sapiens, UniProt Q7RTX0+Q8TE23) | key= COC(=O)[C@H](Cc1ccccc1)NC(=O)[C@@H](N)CC(=O)O [Aspartame] (H-Asp-Phe-OMe)
// result 910 µM

// query // lookup EC50 | system=human sweet taste receptor (hT1R2/hT1R3) (Homo sapiens, UniProt Q7RTX0+Q8TE23) | key= "COC(=O)[C@H](Cc1ccccc1)NC(=O)[C@H](CC(=O)O)NCCC(C)(C)C"
// result 7.7 µM

// query // lookup EC50 | system=human sweet taste receptor (hT1R2/hT1R3) (Homo sapiens, UniProt Q7RTX0+Q8TE23) | key= "C[C@@H](NC(=O)[C@@H](N)CC(=O)O)C(=O)NC1C(C)(C)SC1(C)C"
// result 37 µM

// query // lookup EC50 | system=human sweet taste receptor (hT1R2/hT1R3) (Homo sapiens, UniProt Q7RTX0+Q8TE23) | key= "CC(C)Oc1ccc(NC(=S)NCc2ccc[nH]2)cc1"
// result 0.7 µM

// query // lookup EC50 | system=human sweet taste receptor (hT1R2/hT1R3) (Homo sapiens, UniProt Q7RTX0+Q8TE23) | key= "OC[C@H]1O[C@H](O[C@]2(CCl)O[C@H](CCl)[C@@H](O)[C@@H]2O)[C@H](O)[C@@H](O)[C@H]1Cl"
// result 163 µM

// query // lookup EC50 | system=human sweet taste receptor (hT1R2/hT1R3) (Homo sapiens, UniProt Q7RTX0+Q8TE23) | key= "CC(C)Oc1ccc(NC(=S)NCc2cccs2)cc1"
// result 2.2 µM

// query // lookup EC50 | system=human sweet taste receptor (hT1R2/hT1R3) (Homo sapiens, UniProt Q7RTX0+Q8TE23) | key= "Cc1cc(C)c2c(c1)[C@H](NC(=O)c1conc1C)CCC2"
// result 1.3 µM

###

- targetUnderTest: human sweet taste receptor (hT1R2/hT1R3) coupled to Gα15 (Homo sapiens, UniProt Q7RTX0+Q8TE23)
- Construct: expressed in transfected cells
- protocolNotes: FLIPR calcium mobilization assay, R2/R3 U2OS cells transduced with Gα15 baculovirus
- Assay type: cell-based
- experimentalContext: R2/R3 U2OS cells expressing Gα15; read-out: Activity in FLIPR assay EC50
Residues, ends and D or L forms follow the SMILES beside them.
Quick reference for EC50 among some compounds
Numeric answer only, unit nM assumed.

Here are 9 compounds together with their reported answers.
>>> numericresult("COC(=O)[C@H](Cc1ccccc1)NC(=O)[C@@H](N)CC(=O)O [Aspartame] (H-Asp-Phe-OMe)")
354000
>>> numericresult("Cc1cc(C)c2c(c1)[C@H](NC(=O)c1conc1C)CCC2")
700
>>> numericresult("CC1=CC(=O)NS(=O)(=O)O1")
253000
>>> numericresult("CC(C)Oc1ccc(NC(=S)NCc2ccc[nH]2)cc1")
70
>>> numericresult("CCCOc1ccc([N+](=O)[O-])cc1N")
2200
>>> numericresult("COC(=O)[C@H](Cc1ccccc1)NC(=O)[C@H](CC(=O)O)NCCC(C)(C)C")
1600
>>> numericresult("COCc1cncc(-c2ccc(C(C)(C)C(=O)NCC(C)C)cc2)n1")
700
>>> numericresult("OC[C@H]1O[C@H](O[C@]2(CCl)O[C@H](CCl)[C@@H](O)[C@@H]2O)[C@H](O)[C@@H](O)[C@H]1Cl")
72000
>>> numericresult("CC(C)Oc1ccc(NC(=S)NCc2cccs2)cc1")
300

// query Which EC50 value belongs to "COC(=O)[C@H](Cc1ccccc1)NC(=O)[C@H](CC(=O)O)NC(=O)Nc1ccc(C#N)cc1" ?
// result 4700
